Tested on: 2′-OMe RNA oligo 150-mer (SEQ ID NO:3)
Measurement Notes: Fluorescence signal of 12-mer probes bound to captured 150-mer on streptavidin plate
Format: binding
Details: individual probes, fluorescence (Oregon Green 488)
Below, each entry is listed alongside its reported Signal.
Measurement Kind: Signal

INSERT INTO assay_data (substance, assayed_system, value_reported) VALUES
  ('5′-GUGCGGGUGAUG-butanol-3′ [Probe (4)]', '2′-OMe RNA oligo 150-mer (SEQ ID NO:3)', 115),
  ('5′-GCCGUACUGUAG-butanol-3′ [Probe (3)]', '2′-OMe RNA oligo 150-mer (SEQ ID NO:3)', 256),
  ('5′-CGAGUCCUGCAC-butanol-3′ [Probe (5)]', '2′-OMe RNA oligo 150-mer (SEQ ID NO:3)', 85),
  ('5′-GGGGCCGUACUG-butanol-3′ [Probe (10)]', '2′-OMe RNA oligo 150-mer (SEQ ID NO:3)', 46),
  ('5′-AUAGGGAAUCCU-butanol-3′ [Probe (6)]', '2′-OMe RNA oligo 150-mer (SEQ ID NO:3)', 810),
  ('5′-UGCAGUACAUGU-butanol-3′ [Probe (7)]', '2′-OMe RNA oligo 150-mer (SEQ ID NO:3)', 466);
